The following binders are shown together with reported pKd values.
Biological target: T1, mouse programmed cell death protein 1 Fc fusion protein (mPD-1-Fc), mPD-1 C60S (aa 25-167) (Mus musculus, UniProt Q02242, stabilised)
T1 construct: not cleaved; source: Expi293F, purified (Protein A, SEC; dimeric fraction); not shown: Fc (human), C-terminal, kept
Assay: SPR; Carterra LSA; Fab from the ammonium sulfate precipitate of the culture supernatant immobilised on a NiHC200M chip; hPD-1 (1-1024 nM) or mPD-1-Fc (4-1024 nM) as analyte, fourfold dilution series, no regeneration; HBS-EP pH 7.4, 25 °C; medians over the spots of a construct, KD = koff/kon
Conditions: one partner purified
pKd: −log10 of the molar value.
measurement.kind: pKd

binder="toripalimab Fab L.S61A (Fab, V domains shown, as the heavy chain of Sm3; light chain of Sm3 with this change; numbers count from the chain's first residue; source: Brevibacillus, culture supernatant (ammonium sulfate precipitate); not shown: 6xHis, C-terminal, kept; 6xHN, C-terminal, kept) VH: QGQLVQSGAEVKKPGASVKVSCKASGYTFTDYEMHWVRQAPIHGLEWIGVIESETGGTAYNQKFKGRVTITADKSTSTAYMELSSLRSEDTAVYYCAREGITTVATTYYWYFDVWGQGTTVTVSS VL: DVVMTQSPLSLPVTLGQPASISCRSSQSIVHSNGNTYLEWYLQKPGQSPQLLIYKVSNRFAGVPDRFSGSGSGTDFTLKISRVEAEDVGVYYCFQGSHVPLTFGQGTKLEIK" measurement_kind=pKd numeric_result=6.99
binder="toripalimab Fab H.V50A (Fab, V domains shown, heavy chain of Sm3 with this change; numbers count from the chain's first residue; as the light chain of Sm3; source: Brevibacillus, culture supernatant (ammonium sulfate precipitate); not shown: 6xHis, C-terminal, kept; 6xHN, C-terminal, kept) VH: QGQLVQSGAEVKKPGASVKVSCKASGYTFTDYEMHWVRQAPIHGLEWIGAIESETGGTAYNQKFKGRVTITADKSTSTAYMELSSLRSEDTAVYYCAREGITTVATTYYWYFDVWGQGTTVTVSS VL: DVVMTQSPLSLPVTLGQPASISCRSSQSIVHSNGNTYLEWYLQKPGQSPQLLIYKVSNRFSGVPDRFSGSGSGTDFTLKISRVEAEDVGVYYCFQGSHVPLTFGQGTKLEIK" measurement_kind=pKd numeric_result=6.14
binder="toripalimab Fab H.M34Y (Fab, V domains shown, heavy chain of Sm3 with this change; numbers count from the chain's first residue; as the light chain of Sm3; source: Brevibacillus, culture supernatant (ammonium sulfate precipitate); not shown: 6xHis, C-terminal, kept; 6xHN, C-terminal, kept) VH: QGQLVQSGAEVKKPGASVKVSCKASGYTFTDYEYHWVRQAPIHGLEWIGVIESETGGTAYNQKFKGRVTITADKSTSTAYMELSSLRSEDTAVYYCAREGITTVATTYYWYFDVWGQGTTVTVSS VL: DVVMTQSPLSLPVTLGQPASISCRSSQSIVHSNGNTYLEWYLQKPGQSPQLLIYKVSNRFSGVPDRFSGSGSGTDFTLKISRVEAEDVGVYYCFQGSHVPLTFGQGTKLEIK" measurement_kind=pKd numeric_result=6.79
